# Test system: Bacillus subtilis
# ASSAY COMMENT: cleaved RNA product abundance (RNA/gDNA barcode ratio) relative to median wild-type variant (ratio to wild type); higher = more accumulation of the downstream cleavage product
# EXPERIMENTAL CONDITIONS: experiment (reporter, strain, medium): exp 2b: truncated aprE reporter, strain BJT200; cleavage site: cggR-gapA (positions -7 to +36 mutated)
We begin with a simple list: items and their reported cleaved RNA product abundance.
# print the numeric value only

[
  {
    "MONOMER SEQUENCE": "ACAGACGAAGGAGCCGCAAAGAAGTTATTAAGGGCTGAATAATTCCTCAATATAAATATCTCTCACTTATTTAAA",
    "cleaved RNA product abundance": 0.0668
  }
]

So what does the record say about cleaved RNA product abundance for ACAGACGAAGGAGCCGCAAAGAATTTATTAAGGGATGAATAATCCCTCAATATATATATCTCTCACTTATTTAAA ? 0.649

Follow-up item: ACAGACGAAGGAGCCGCAAAGAAATTATAAAGGGATGAATAATCCCTCAATATAAATATCTCTCACTTATTTAAA 0.215

From: the supplement of paper PMC11780869
